Measured values drawn from PubChem BioAssay AID212 for this set.

Listed next: entries and their corresponding T/C.
system: BDF1 mice, colon carcinoma 38 sc, T/C %; test: NCI In Vivo Anticancer Drug Screen. Data for tumor model Colon Carcinoma 38 (subcutaneous) in B6D2F1 (BDF1) mice; settings: endpoint: median tumor weight (est.); dose: 12.0 mg/kg/injection; schedule: Q07DX002 (ip); vehicle: saline with Tween-80; higher = larger tumour
Records with an inconclusive call do not appear.

{"molecule": "CC(=O)OC1COC(NC(=O)N(CCCl)N=O)C(OC(C)=O)C1OC(C)=O (centres undefined)", "T/C": "44 % of control"}
{"molecule": "COP12(OCCO1)SC(C(F)(F)F)=C(C(F)(F)F)S2", "T/C": "75 % of control"}
{"molecule": "CC[C@@]1(O)C(=O)OCc2c1cc1n(c2=O)Cc2cc3ccccc3nc2-1", "T/C": "90 % of control"}
{"molecule": "CCCCCC1c2cc(O)ccc2OC1N1CCOCC1 (centres undefined)", "T/C": "107 % of control"}

---

test system: BDF1 mice, colon carcinoma 38 sc, T/C %; assay: NCI In Vivo Anticancer Drug Screen. Data for tumor model Colon Carcinoma 38 (subcutaneous) in B6D2F1 (BDF1) mice; details: endpoint: median tumor weight (est.); dose: 12.5 mg/kg/injection; schedule: Q07DX003 (ip); vehicle: saline; higher = larger tumour
Records with an inconclusive call do not appear.
result_type: T/C

{"molecule": "O=[N+]([O-])O.[Ga]", "observed_result": "122 % of control"}
{"molecule": "Cc1ncc(CNC(=O)N(CCCl)N=O)c(N)n1", "observed_result": "88 % of control"}
{"molecule": "COC(OC(CO)C(O)S(=O)(=O)O)C(O)S(=O)(=O)O (stereo not given)", "observed_result": "123 % of control"}
{"molecule": "Cc1c2ccncc2c(C)c2c1[nH]c1ccccc12", "observed_result": "78 % of control"}
{"molecule": "CC[n+]1ccc(Nc2ccc(NC(=O)c3ccc(C(=O)Nc4ccc(Nc5cc[n+](CC)c(N)n5)cc4)cc3)cc2)nc1N", "observed_result": "55 % of control"}

---

system: BDF1 mice, colon carcinoma 38 sc, T/C %; experiment: NCI In Vivo Anticancer Drug Screen. Data for tumor model Colon Carcinoma 38 (subcutaneous) in B6D2F1 (BDF1) mice; settings: endpoint: median tumor weight (est.); dose: 12.5 mg/kg/injection; schedule: Q07DX003 (ip); vehicle: saline with Tween-80; higher = larger tumour
Records with an inconclusive call do not appear.

{"compound": "COc1ccc([I+]c2cccc(Cl)c2)cc1Cl", "T/C": "78 % of control"}
{"compound": "CC/C(=C(/CC)c1ccc(O)cc1)c1ccc(O)cc1", "T/C": "96 % of control"}
{"compound": "CC(=O)OCC1OC(n2cc(CBr)nn2)C(OC(C)=O)C(OC(C)=O)C1OC(C)=O (stereo not given)", "T/C": "67 % of control"}
{"compound": "Cc1ncc([N+](=O)[O-])n1CCSC(N)=O", "T/C": "111 % of control"}
{"compound": "CC1=C(/C=C/C(C)=C/C=C/C(C)=C/C(=O)O)C(C)(C)CCC1", "T/C": "99 % of control"}

---

system: BDF1 mice, colon carcinoma 38 sc, T/C %; experiment: NCI In Vivo Anticancer Drug Screen. Data for tumor model Colon Carcinoma 38 (subcutaneous) in B6D2F1 (BDF1) mice; settings: endpoint: median tumor weight (est.); dose: 100.0 mg/kg/injection; schedule: Q07DX002 (ip); vehicle: water; higher = larger tumour
Results filed as inconclusive are left out.
Entries annotated with measured T/C

{"compound": "NC(=O)c1c[se]c(C2OC(CO)C(O)C2O)n1 (configuration not stated)", "T/C": "44 % of control"}
{"compound": "O=C(NO)c1cc(O)c(O)c(O)c1", "T/C": "70 % of control"}
{"compound": "CN1N=C(N)c2cn(C3OC(COP(=O)(O)O)C(O)C3O)c3ncnc1c23 (configuration not stated)", "T/C": "73 % of control"}
{"compound": "COc1cc(NCc2ccc3nc(N)nc(N)c3c2C)cc(OC)c1OC", "T/C": "217 % of control"}
{"compound": "O=C(NO)c1ccc(O)c(O)c1", "T/C": "92 % of control"}
{"compound": "Nc1nc2c(ncn2C2OC(CO)C(O)C2O)c(=O)[nH]1.Nc1nc2c(ncn2C2OC(CO)C(O)C2O)c(=O)[nH]1.[NH2-].[NH2-].[Pt+2] (configuration not stated)", "T/C": "248 % of control"}
{"compound": "N#CC(OC1OC(COC2OC(CO)C(O)C(O)C2O)C(O)C(O)C1O)c1ccccc1 (configuration not stated)", "T/C": "87 % of control"}
